FYI, the data here is from ChEMBL document CHEMBL1129992.

Target entity: Human immunodeficiency virus type 1 integrase (Human immunodeficiency virus 1, UniProt Q7ZJM1)
Sequence (Q7ZJM1 whole entry): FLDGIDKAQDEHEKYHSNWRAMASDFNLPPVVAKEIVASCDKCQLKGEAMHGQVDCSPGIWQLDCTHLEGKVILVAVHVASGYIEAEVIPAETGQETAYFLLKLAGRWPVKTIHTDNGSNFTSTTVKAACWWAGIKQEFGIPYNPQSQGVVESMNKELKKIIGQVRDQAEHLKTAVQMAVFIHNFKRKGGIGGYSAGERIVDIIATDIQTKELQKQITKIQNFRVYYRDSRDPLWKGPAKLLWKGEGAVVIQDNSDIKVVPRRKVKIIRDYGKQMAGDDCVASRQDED
Assay: Inhibition of HIV-1 integrase-mediated strand transfer
pIC50: −log10 of the molar value.
Result type: pIC50

Would you please look over these solved cases?
INSERT INTO results (compound, quantitative_readout) VALUES
  ('COC(=O)c1ccc2c(O)c(O)ccc2c1', 4.28),
  ('O=C(O)c1ccc2cc(O)ccc2c1', 3.76),
  ('O=C(NCCCNC(=O)c1ccc2c(O)c(O)ccc2c1)c1ccc2c(O)c(O)ccc2c1', 6.96),
  ('O=C(NCCCNC(=O)c1ccc2cc(O)c(O)cc2c1)c1ccc2cc(O)c(O)cc2c1', 6.09);

I = O=C(O)c1ccc2cc(O)c(O)cc2c1
II = O=C(O)c1ccc2c(O)c(O)ccc2c1
Qu. I'm curious, which of these has a smaller pIC50 number: I or II ? Which one? Tell me its label.
Ans. II

---

Target entity: Human immunodeficiency virus type 1 integrase (Human immunodeficiency virus 1, UniProt Q7ZJM1)
Assay: Inhibition of HIV-1 integrase-mediated 3'-processing
As shown below, each of these molecules has a reported IC50 value.

Would you please look over these solved cases?
INSERT INTO results (compound, result) VALUES
  ('O=C(CCc1cc(O)cc(O)c1)NCCc1ccc(O)c(O)c1', '> 350 µM'),
  ('O=C(CCc1ccc(O)cc1)NCCc1cccc(O)c1', '> 350 µM'),
  ('O=C(CCc1cc(O)cc(O)c1)NCCCNC(=O)CCc1cc(O)cc(O)c1', '> 200 µM'),
  ('COc1ccc2cc(C(=O)NCCCNC(=O)c3ccc4cc(OC)ccc4c3)ccc2c1', '> 200 µM'),
  ('O=C(CCc1ccc(O)cc1)NCCc1ccc(O)cc1', '> 350 µM');

The record that follows has no IC50 shown yet.
Measured IC50 of O=C(CCc1cccc(O)c1)NCCc1ccc(O)cc1 : > 350 µM

---

Target entity: Human immunodeficiency virus type 1 integrase (Human immunodeficiency virus 1, UniProt Q7ZJM1)
Assay: Inhibition of HIV-1 integrase-mediated 3'-processing
Result type: IC50

Would you please look over these solved cases?
INSERT INTO results (compound, result_type, result) VALUES
  ('COc1ccc2cc(C(=O)NCCCNC(=O)c3ccc4c(OC)c(OC)ccc4c3)ccc2c1OC', 'IC50', '> 200 µM'),
  ('COC(=O)c1ccc2cc(O)ccc2c1', 'IC50', '> 200 µM'),
  ('COC(=O)c1ccc2cc(O)c(O)cc2c1', 'IC50', '> 200 µM'),
  ('O=C(CCc1cccc(O)c1)NCCCNC(=O)CCc1cccc(O)c1', 'IC50', '> 200 µM'),
  ('O=C(NCCCNC(=O)c1ccc2cc(O)ccc2c1)c1ccc2cc(O)ccc2c1', 'IC50', '> 200 µM');

Measured IC50 of O=C(NCCCNC(=O)c1ccc2c(O)c(O)ccc2c1)c1ccc2c(O)c(O)ccc2c1 : 0.23 µM

Measured IC50 of O=C(CCc1ccc(O)cc1)NCCCNC(=O)CCc1ccc(O)cc1 : > 200 µM

Measured IC50 of O=C(CCc1ccc(O)c(O)c1)NCCc1ccc(O)c(O)c1 : 33 µM

Measured IC50 of O=C(CCc1cccc(O)c1)NCCc1cccc(O)c1 : > 350 µM

Measured IC50 of COc1cc2ccc(C(=O)NCCCNC(=O)c3ccc4cc(OC)c(OC)cc4c3)cc2cc1OC : > 200 µM

Measured IC50 of O=C(NCCCNC(=O)c1ccc2cc(O)c(O)cc2c1)c1ccc2cc(O)c(O)cc2c1 : 0.98 µM

Measured IC50 of O=C(CCc1ccc(O)c(O)c1)NCCc1cc(O)cc(O)c1 : > 350 µM

Measured IC50 of O=C(CCc1cc(O)cc(O)c1)NCCc1cc(O)cc(O)c1 : > 350 µM
